Measured values drawn from patent US20200024330A1 for this set.

# EXPERIMENTAL TARGET: HIV-1 JR-CSF Env K343A (HIV-1 isolate JR-CSF) (UniProt P20871)
# TEST DETAILS: cell-based or functional assay

{"BINDER": "PGT-126 (antibody, V domains shown) VH: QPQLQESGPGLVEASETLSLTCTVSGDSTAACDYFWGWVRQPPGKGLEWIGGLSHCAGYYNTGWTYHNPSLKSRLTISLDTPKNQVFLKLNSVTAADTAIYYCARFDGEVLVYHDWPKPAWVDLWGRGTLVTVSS VL: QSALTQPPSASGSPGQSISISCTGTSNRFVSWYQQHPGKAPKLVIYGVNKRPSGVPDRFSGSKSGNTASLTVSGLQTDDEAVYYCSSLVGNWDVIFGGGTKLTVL", "UNIT": "fold", "Fold IC50 increase relative to wild-type": 1.2}
{"BINDER": "PGT-125 (antibody, V domains shown) VH: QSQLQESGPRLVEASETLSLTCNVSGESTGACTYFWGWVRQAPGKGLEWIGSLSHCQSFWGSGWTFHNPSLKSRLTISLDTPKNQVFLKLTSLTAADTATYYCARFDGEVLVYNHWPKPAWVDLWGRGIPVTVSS VL: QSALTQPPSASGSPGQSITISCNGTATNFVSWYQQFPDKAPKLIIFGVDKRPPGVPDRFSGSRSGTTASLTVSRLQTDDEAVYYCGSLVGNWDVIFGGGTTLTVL", "UNIT": "fold", "Fold IC50 increase relative to wild-type": 0.7}
